// provenance: ChEMBL document CHEMBL1649443

Measured half-life, listed per entry for reference.
# ASSAY PROCEDURE: Half life in mouse at 50 mg/kg, ip administered as single dose
# Type: ADME, organism-based
# Set-up: dose 50 mg/kg, route intraperitoneal
# CONDITION NOTES: in vivo
OBSERVATION TYPE: half-life (h)

# SMILES ENTRY, OBSERVATION TYPE, RECORDED VALUE
measured = [
    ("CN(C/C=C\\CN)C[C@H]1O[C@@H](n2cnc3c(N)ncnc32)[C@H](O)[C@@H]1O", "half-life", 2.48),
    ("CN(C/C=C\\CN)C[C@H]1O[C@@H](n2cnc3c(N)ncnc32)[C@H](F)[C@@H]1O", "half-life", 1.93),
    ("CN(C/C=C\\CN)C[C@H]1O[C@@H](n2cnc3c(N)nc(Cl)nc32)[C@H](O)[C@@H]1O", "half-life", 1.66),
    ("Cc1nc(N)c2ncn([C@@H]3O[C@H](CN(C)C/C=C\\CN)[C@@H](O)[C@H]3O)c2n1", "half-life", 7.43),
]

====

# ASSAY PROCEDURE: Metabolic stability in human assessed as compound remaining plasma after 4 hrs
# Type: ADME, cell-free
# CONDITION NOTES: read-out: Stability

# SMILES ENTRY, QUANTITY UNIT, remaining at 4 h
records = [
    ("CN(C/C=C\\CN)C[C@H]1O[C@@H](n2cnc3c(N)ncnc32)[C@H](O)[C@@H]1O", "%", 100),
]

====

# ASSAY PROCEDURE: Cmax in rat at 10 mg/kg, po
# Assay type: ADME, organism-based
# Set-up: dose 10 mg/kg, route oral
# CONDITION NOTES: in vivo

# SMILES ENTRY, Cmax
data = [
    ("Cc1nc(N)c2ncn([C@@H]3O[C@H](CN(C)C/C=C\\CN)[C@@H](O)[C@H]3O)c2n1", "39 ng/mL"),
]

====

# ASSAY PROCEDURE: AUC in rat at 3 mg/kg, iv
# Format: ADME, organism-based
# Set-up: dose 3 mg/kg, route intravenous
# CONDITION NOTES: plasma

# SMILES ENTRY, AUC, ng·h/mL
data = [
    ("Cc1nc(N)c2ncn([C@@H]3O[C@H](CN(C)C/C=C\\CN)[C@@H](O)[C@H]3O)c2n1", 681),
]

====

AUC for assorted molecules
# ASSAY PROCEDURE: AUC in mouse blood at 50 mg/kg, ip administered as single dose
# Type: ADME, organism-based
# Parameters: dose 50 mg/kg, route intraperitoneal
OBSERVATION TYPE: AUC (µg·h/mL)

# SMILES ENTRY, RECORDED VALUE
measured = [
    ("CN(C/C=C\\CN)C[C@H]1O[C@@H](n2cnc3c(N)ncnc32)[C@H](F)[C@@H]1O", 16.3),
    ("CN(C/C=C\\CN)C[C@H]1O[C@@H](n2cnc3c(N)nc(Cl)nc32)[C@H](O)[C@@H]1O", 22.1),
    ("CN(C/C=C\\CN)C[C@H]1O[C@@H](n2cnc3c(N)ncnc32)[C@H](O)[C@@H]1O", 20.7),
    ("Cc1nc(N)c2ncn([C@@H]3O[C@H](CN(C)C/C=C\\CN)[C@@H](O)[C@H]3O)c2n1", 17.9),
]

====

Parameter solubility kinetic: see the listing below.
# ASSAY PROCEDURE: Kinetic solubility in phosphate-buffered saline at pH 7.4 after 16 to 24 hrs by UV spectrophotometry

# SMILES ENTRY, solubility kinetic
measured = [
    ("CN(C/C=C\\CN)C[C@H]1O[C@@H](n2cnc3c(N)ncnc32)[C@@H](F)[C@@H]1O", "> 47 µg/mL"),
    ("CN(C/C=C\\CN)C[C@H]1O[C@@H](n2cnc3c(N)ncnc32)[C@H](F)[C@@H]1O", "> 47 µg/mL"),
    ("Cc1nc(N)c2ncn([C@@H]3O[C@H](CN(C)C/C=C\\CN)[C@@H](O)[C@H]3O)c2n1", "> 49 µg/mL"),
    ("CN(C/C=C\\CN)C[C@H]1O[C@@H](n2cnc3c(N)nc(Cl)nc32)[C@H](O)[C@@H]1O", "> 51 µg/mL"),
    ("CN(C/C=C\\CN)C[C@H]1O[C@@H](n2cnc3c(N)ncnc32)[C@H](O)[C@@H]1O", "> 47 µg/mL"),
]

====

# ASSAYED SYSTEM: CYP3A4 (Homo sapiens, UniProt P08684)
# Sequence (P08684 whole entry): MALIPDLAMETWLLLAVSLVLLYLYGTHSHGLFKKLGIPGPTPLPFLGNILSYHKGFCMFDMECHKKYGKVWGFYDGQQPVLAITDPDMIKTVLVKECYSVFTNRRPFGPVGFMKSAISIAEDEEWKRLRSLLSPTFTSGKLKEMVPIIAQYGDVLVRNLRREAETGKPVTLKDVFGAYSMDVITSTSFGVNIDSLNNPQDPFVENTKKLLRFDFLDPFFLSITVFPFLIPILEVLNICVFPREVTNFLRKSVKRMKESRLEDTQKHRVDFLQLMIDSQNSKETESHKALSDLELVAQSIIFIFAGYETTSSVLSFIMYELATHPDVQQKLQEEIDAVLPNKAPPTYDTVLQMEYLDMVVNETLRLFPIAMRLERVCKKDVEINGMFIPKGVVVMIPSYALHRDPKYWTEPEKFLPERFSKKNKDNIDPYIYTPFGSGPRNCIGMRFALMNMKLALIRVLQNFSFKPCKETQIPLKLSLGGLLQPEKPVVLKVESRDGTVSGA
# ASSAY PROCEDURE: Inhibition of human cytochrome P450 3A4
# CONDITION NOTES: human
# maps each entry to its IC50
OBSERVATION TYPE: IC50

# SMILES ENTRY, ASSAYED SYSTEM, OBSERVATION TYPE, RECORDED VALUE
records = [
    ("CN(C/C=C\\CN)C[C@H]1O[C@@H](n2cnc3c(N)ncnc32)[C@@H](F)[C@@H]1O", "CYP3A4 (Homo sapiens, UniProt P08684)", "IC50", "> 5 µM"),
    ("CN(C/C=C\\CN)C[C@H]1O[C@@H](n2cnc3c(N)nc(Cl)nc32)[C@H](O)[C@@H]1O", "CYP3A4 (Homo sapiens, UniProt P08684)", "IC50", "> 5 µM"),
    ("Cc1nc(N)c2ncn([C@@H]3O[C@H](CN(C)C/C=C\\CN)[C@@H](O)[C@H]3O)c2n1", "CYP3A4 (Homo sapiens, UniProt P08684)", "IC50", "> 5 µM"),
]

====

# ASSAYED SYSTEM: UniProt:P10635
# Sequence (P10635 whole entry): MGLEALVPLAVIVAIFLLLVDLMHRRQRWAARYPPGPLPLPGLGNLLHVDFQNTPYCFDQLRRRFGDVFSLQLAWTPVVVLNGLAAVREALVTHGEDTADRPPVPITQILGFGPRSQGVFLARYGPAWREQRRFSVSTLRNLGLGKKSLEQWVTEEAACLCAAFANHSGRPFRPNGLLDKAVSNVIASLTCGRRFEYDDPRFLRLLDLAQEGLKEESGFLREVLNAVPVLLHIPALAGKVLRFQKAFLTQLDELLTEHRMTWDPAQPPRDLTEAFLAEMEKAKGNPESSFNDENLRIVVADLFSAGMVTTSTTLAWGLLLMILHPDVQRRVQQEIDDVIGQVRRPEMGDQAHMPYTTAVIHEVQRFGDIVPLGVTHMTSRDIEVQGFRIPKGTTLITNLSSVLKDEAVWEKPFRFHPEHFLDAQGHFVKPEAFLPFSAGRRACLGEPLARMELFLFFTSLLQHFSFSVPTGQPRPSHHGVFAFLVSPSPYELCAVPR
OBSERVATION TYPE: IC50

# SMILES ENTRY, ASSAYED SYSTEM, RECORDED VALUE
data = [
    ("CN(C/C=C\\CN)C[C@H]1O[C@@H](n2cnc3c(N)ncnc32)[C@H](O)[C@@H]1O", "UniProt:P10635", "> 5 µM"),
]

====

# ASSAY PROCEDURE: Half life in rat at 10 mg/kg, po
# Format: ADME, organism-based
# Set-up: dose 10 mg/kg, route oral
# CONDITION NOTES: in vivo

# SMILES ENTRY, half-life [h]
measured = [
    ("Cc1nc(N)c2ncn([C@@H]3O[C@H](CN(C)C/C=C\\CN)[C@@H](O)[C@H]3O)c2n1", 1.53),
]

====

# ASSAY PROCEDURE: Protein binding in human plasma at pH 7.4 after 4 hrs
# Format: ADME, cell-free
# CONDITION NOTES: read-out: PPB (converted)
OBSERVATION TYPE: fraction unbound at 4 h

# SMILES ENTRY, OBSERVATION TYPE, RECORDED VALUE
measured = [
    ("CN(C/C=C\\CN)C[C@H]1O[C@@H](n2cnc3c(N)ncnc32)[C@H](F)[C@@H]1O", "fraction unbound at 4 h", 0.767),
    ("CN(C/C=C\\CN)C[C@H]1O[C@@H](n2cnc3c(N)ncnc32)[C@H](O)[C@@H]1O", "fraction unbound at 4 h", 0.271),
    ("CN(C/C=C\\CN)C[C@H]1O[C@@H](n2cnc3c(N)ncnc32)[C@@H](F)[C@@H]1O", "fraction unbound at 4 h", 0.678),
    ("CN(C/C=C\\CN)C[C@H]1O[C@@H](n2cnc3c(N)nc(Cl)nc32)[C@H](O)[C@@H]1O", "fraction unbound at 4 h", 0.61),
    ("Cc1nc(N)c2ncn([C@@H]3O[C@H](CN(C)C/C=C\\CN)[C@@H](O)[C@H]3O)c2n1", "fraction unbound at 4 h", 0.588),
]

====

# ASSAY PROCEDURE: AUC in mouse brain at 50 mg/kg, ip administered as single dose
# Type: ADME, organism-based
# Design: dose 50 mg/kg, route intraperitoneal
OBSERVATION TYPE: AUC (ng·h/mL)

# SMILES ENTRY, OBSERVATION TYPE, QUANTITY UNIT, RECORDED VALUE
data = [
    ("CN(C/C=C\\CN)C[C@H]1O[C@@H](n2cnc3c(N)ncnc32)[C@H](F)[C@@H]1O", "AUC", "ng·h/mL", 140),
    ("CN(C/C=C\\CN)C[C@H]1O[C@@H](n2cnc3c(N)nc(Cl)nc32)[C@H](O)[C@@H]1O", "AUC", "ng·h/mL", 400),
    ("Cc1nc(N)c2ncn([C@@H]3O[C@H](CN(C)C/C=C\\CN)[C@@H](O)[C@H]3O)c2n1", "AUC", "ng·h/mL", 1300),
    ("CN(C/C=C\\CN)C[C@H]1O[C@@H](n2cnc3c(N)ncnc32)[C@H](O)[C@@H]1O", "AUC", "ng·h/mL", 360),
]
